method notes: Organ distribution of ICB/11/D-8
Format: in vivo
assay context: Swiss, mouse, intestine; 2 hr; N=4 mice
measured quantity: concentration at 2 h (ng/g)
Numbers only; they are read as ng/g.

Given the molecule "COc1cc(C=O)cc2c1[nH]c1ccccc12" , what is its reported concentration at 2 h?
168000

---

method notes: Organ distribution of ICB/11/D-8
Format: in vivo
assay context: Swiss, mouse, kidneys; 2 hr; N=4 mice; read-out: Organ distribution: Kidneys
measured quantity: concentration at 2 hr

Given the compound "COc1cc(C=O)cc2c1[nH]c1ccccc12" , what is its reported concentration at 2 hr?
171000 ng/g

---

method notes: Organ distribution of ICB/11/D-8
Format: in vivo
assay context: Swiss, mouse, brain; 2 hr; N=4 mice; read-out: Organ distribution: Brain
measured quantity: concentration at 2 hr
Please format your answer as a value with the unit trailing.

Given the compound "COc1cc(C=O)cc2c1[nH]c1ccccc12" , what is its reported concentration at 2 hr?
26700 ng/g

---

method notes: Organ distribution of ICB/11/D-8
Format: in vivo
assay context: male, Swiss, mouse, testes; 4 hr; N=4 mice; read-out: Organ distribution: Testes
measured quantity: concentration at 4 hr

Given the molecule "COc1cc(C=O)cc2c1[nH]c1ccccc12" , what is its reported concentration at 4 hr?
58800 ng/g

---

method notes: Organ distribution of ICB/11/D-8
Type: in vivo
assay context: Swiss, mouse, lungs, 50 not found; 12 hr; N=4 mice; read-out: Organ distribution: Lungs
measured quantity: concentration at 12 hr (ng/g)
Numbers only; they are read as ng/g.

Given the molecule COc1cc(C=O)cc2c1[nH]c1ccccc12 [Compound I, 1-methoxy-3-formyl-9H carbazole] , what is its reported concentration at 12 hr?
6700

---

method notes: Organ distribution of ICB/11/D-8
Type: in vivo
assay context: Swiss, mouse, liver; 12 hr; N=4 mice; read-out: Organ distribution: Liver
Description: Organ Distribution of ICB/11/D-8 (ug/100 mg tissue, N=4 mice, 50
measured quantity: concentration at 12 hr (ng/g)
Numbers only; they are read as ng/g.

Given the molecule COc1cc(C=O)cc2c1[nH]c1ccccc12 [Compound I, 1-methoxy-3-formyl-9H carbazole] , what is its reported concentration at 12 hr?
12500

---

method notes: Organ distribution of ICB/11/D-8
Assay type: in vivo
assay context: Swiss, mouse, kidneys; 0.5 hr; N=4 mice; read-out: Organ distribution: Kidneys
measured quantity: concentration at 0.5 hr (ng/g)
Numbers only; they are read as ng/g.

Given the compound "COc1cc(C=O)cc2c1[nH]c1ccccc12" , what is its reported concentration at 0.5 hr?
135000

---

method notes: Organ distribution of ICB/11/D-8
Type: in vivo
assay context: Swiss, mouse, lungs; 0.5 hr; N=4 mice; read-out: Organ distribution: Lungs
Procedure: Organ Distribution of ICB/11/D-8 (ug/100 mg tissue, N=4 mice, 50
measured quantity: concentration at 0.5 hr (ng/g)
Numbers only; they are read as ng/g.

Given the molecule "COc1cc(C=O)cc2c1[nH]c1ccccc12" , what is its reported concentration at 0.5 hr?
122000

---

method notes: Organ distribution of ICB/11/D-8
Format: in vivo
assay context: Swiss, mouse, spleen, 50 not found; 0.5 hr; N=4 mice; read-out: Organ distribution: Spleen
measured quantity: concentration at 0.5 hr (ng/g)
Numbers only; they are read as ng/g.

Given the compound COc1cc(C=O)cc2c1[nH]c1ccccc12 [Compound I, 1-methoxy-3-formyl-9H carbazole] , what is its reported concentration at 0.5 hr?
123000
